# Lookup of reported thermal conductivity keyed by entry
# CONDITION_PARAMETERS: 295 K; 77 kPa; Liquid; transient hot wire
The response must be a number in W/m/K with no trailing unit.

Qu. Can you share its thermal conductivity? I mean this molecule: OCC(O)CO [glycerol]
Ans. 0.289

Qu. Can you share its thermal conductivity? I mean this molecule: OCCO [1,2-ethanediol]
Ans. 0.254

Qu. Can you share its thermal conductivity? I mean this molecule: CCCCCCC [heptane]
Ans. 0.119

Qu. Can you share its thermal conductivity? I mean this molecule: CO [methanol]
Ans. 0.208

Qu. Can you share its thermal conductivity? I mean this molecule: O [water]
Ans. 0.6

Qu. Can you share its thermal conductivity? I mean this molecule: CC(C)CC(C)(C)C [2,2,4-trimethylpentane]
Ans. 0.096
